Tested on: redroot pigweed (Amaranthus retroflexus, AMARE)
Assay: Post-emerge test, greenhouse herbicide activity screening
Type: in vivo
Settings: Amaranthus retroflexus, post-emergence, 336 h; post-emerge, 63 g ai/ha, phytotoxicity rating 0-100 at 14 days after application; read-out: Post-emerge Herbicidal Activity AMARE
metric: pest or weed control at 63 g/ha (%)
Response body: numeric value in %, unit text excluded.

INSERT INTO results (test_smiles, numeric_readout) VALUES
  ('CC(C)Oc1c(Cl)cc(F)c(N2C(=O)C3=C(CCCC3)C2=O)c1N', 70),
  ('COc1c(Cl)cc(F)c(N2C(=O)c3ccccc3C2=O)c1NC(=O)c1ccc2ccccc2c1', 90);

The record that follows has no pest or weed control at 63 g/ha shown yet.
Sure, the documented pest or weed control at 63 g/ha for `CC(C)Oc1c(Cl)cc(F)c(-n2nnn(CCCF)c2=O)c1N` is 0
